assay: NCI Yeast Anticancer Drug Screen. Data for the sgs1 mgt1 strain (AID 161);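 note: 0% = growth of cultures given vehicle only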; settings: S. cerevisiae sgs1 mgt1 strain, at 50.0 µM, stronger effect = higher value
The panel holds about 79,000 compounds, 15% with a hit somewhere; the sample as a whole holds those more often.

{"MOLECULE": "CCOc1nc(N)nc(C)c1N=Nc1cccc([N+](=O)[O-])c1", "READOUT UNITS": "%", "growth inhibition": 7}
{"MOLECULE": "CC(C)(C)OC(=O)CN1C(=O)CCC1=O", "READOUT UNITS": "%", "growth inhibition": 20.2}
{"MOLECULE": "CN(N)C(=O)NCCCl", "READOUT UNITS": "%", "growth inhibition": 8.25}
{"MOLECULE": "O=C(O)/C=C(/Oc1ccccc1)c1ccccc1", "READOUT UNITS": "%", "growth inhibition": -7.95}
{"MOLECULE": "NC(CCC(N)C(=O)c1ccccc1)C(=O)c1ccccc1 (configuration not stated)", "READOUT UNITS": "%", "growth inhibition": 4.35}
{"MOLECULE": "CCCC(=O)c1ccccc1", "READOUT UNITS": "%", "growth inhibition": 19.9}
{"MOLECULE": "Cn1cnnc1Sc1c([N+](=O)[O-])nc(-c2ccc([N+](=O)[O-])cc2)n1C", "READOUT UNITS": "%", "growth inhibition": 10.1}
{"MOLECULE": "OC1(c2ccccc2)C=C(c2ccccc2)C=C(c2ccccc2)O1 (configuration not stated)", "READOUT UNITS": "%", "growth inhibition": -1.05}
{"MOLECULE": "Cc1ccc(NC2=CC(=O)C(=O)c3ccccc32)cc1C", "READOUT UNITS": "%", "growth inhibition": 19.4}
{"MOLECULE": "CCC(=O)OCCC(C)C", "READOUT UNITS": "%", "growth inhibition": 6.85}
{"MOLECULE": "CCOC(=O)Nc1cc2c(c(N)n1)N=C(CN(C)c1ccccc1)CN2", "READOUT UNITS": "%", "growth inhibition": 59.5}
{"MOLECULE": "CCOC(=O)Nc1cc(Cl)c2ncn(C(=O)OCC)c2n1", "READOUT UNITS": "%", "growth inhibition": 10.9}
{"MOLECULE": "CCC(=O)[C@H]1CC[C@H]2[C@@H]3CCC4=CC(=O)CC[C@]4(C)[C@H]3CC[C@]12C", "READOUT UNITS": "%", "growth inhibition": 32}
{"MOLECULE": "CC(O)CN1c2ccccc2Sc2ccccc21 (configuration not stated)", "READOUT UNITS": "%", "growth inhibition": -13.2}
{"MOLECULE": "CCOS(=O)(=O)CC(C)C(C)C (configuration not stated)", "READOUT UNITS": "%", "growth inhibition": -7.8}
{"MOLECULE": "Nc1ncnc2c1ncn2C1CCC(COS(N)(=O)=O)C1 (configuration not stated)", "READOUT UNITS": "%", "growth inhibition": 5}
{"MOLECULE": "C=CCOC(=O)C(C)(C)OC(C)=O", "READOUT UNITS": "%", "growth inhibition": 10.8}
{"MOLECULE": "CCCC(O)c1ccccc1 (configuration not stated)", "READOUT UNITS": "%", "growth inhibition": -9.65}
{"MOLECULE": "CC(C)CCOC(=S)S", "READOUT UNITS": "%", "growth inhibition": -22.6}
{"MOLECULE": "Cc1cc(NC(=O)C(=O)CC(=O)c2cccnc2)no1", "READOUT UNITS": "%", "growth inhibition": -8.2}
{"MOLECULE": "C=C(C)C(=O)O[C@H]1CC2=C[C@@H](C[C@@]3(C)O[C@@H]3[C@H]3OC(=O)C(=C)[C@@H]31)OC2=O", "READOUT UNITS": "%", "growth inhibition": 22.2}
{"MOLECULE": "CCc1cccc(CC)c1NC(=O)c1ccccc1Br", "READOUT UNITS": "%", "growth inhibition": 15.7}
{"MOLECULE": "CNC(=O)c1nnn(Cc2ccc(OC)cc2)c1Cl", "READOUT UNITS": "%", "growth inhibition": -14.7}
{"MOLECULE": "COC1CC(NC(C)=O)C(OC(=O)c2ccccc2)C(CBr)O1 (configuration not stated)", "READOUT UNITS": "%", "growth inhibition": 2.45}
{"MOLECULE": "CCNC(=O)OCCN1C(=O)C2C3CCC(O3)C2C1=O (configuration not stated)", "READOUT UNITS": "%", "growth inhibition": 22.1}
{"MOLECULE": "C=C(Cl)COc1ccc(-c2ccccc2)cc1", "READOUT UNITS": "%", "growth inhibition": 16.5}
{"MOLECULE": "O=C(NC1CC1)c1ccccc1", "READOUT UNITS": "%", "growth inhibition": 4.7}

----------
List of growth inhibition values.
Experiment: NCI Yeast Anticancer Drug Screen. Data for the mec2-1 strain (AID 157)
Conditions: S. cerevisiae mec2-1 strain, at 50.0 µM, stronger effect = higher value
Method: Growth inhibition of yeast strains with defined genetic alterations is measured as a screen for potential anti-cancer activity. Selected strains with alterations in DNA damage repair or cell cycle control were exposed to compounds and growth inhibition was measured relative to vehicle treated controls. The strain used in this assay is mec2-1
The panel holds about 79,000 compounds, 15% with a hit somewhere; the sample as a whole holds those more often.

{"COMPOUND": "Cc1cc(Br)c(NC(=O)c2c(-c3c(Cl)cccc3Cl)noc2C)c(Br)c1", "growth inhibition [%]": -16.3}
{"COMPOUND": "CCCCCCCC/C=C\\CCCCCCCC(=O)N1CCN(C(=O)CCCCCCC/C=C/CCCCCCCC)C1", "growth inhibition [%]": -13.3}
{"COMPOUND": "O=C(O)/C(=C\\c1ccccc1[N+](=O)[O-])c1ccc(C(F)(F)F)cc1", "growth inhibition [%]": -15.9}
{"COMPOUND": "COc1cc(NC(C)CCCNC(C)C)c2nccc(C)c2c1 (configuration not stated)", "growth inhibition [%]": 16.3}
{"COMPOUND": "CC(=O)c1c(C)c([N+](=O)[O-])c(C)c([N+](=O)[O-])c1C", "growth inhibition [%]": 11.9}
{"COMPOUND": "O=S(=O)(O)CCc1ccccc1", "growth inhibition [%]": 9.15}
{"COMPOUND": "CNC(=O)n1cncn1", "growth inhibition [%]": 3.35}
{"COMPOUND": "Cn1c(=O)c2[nH]c(=S)n(CC3CCCCC3)c2n(C)c1=O", "growth inhibition [%]": -3.55}
{"COMPOUND": "COc1ccc2c(c1)N(S(=O)(=O)c1ccc(C)cc1)C[C@@H]1c3cc(O)c(OCc4ccccc4)cc3O[C@H]21", "growth inhibition [%]": 7.9}
{"COMPOUND": "OC1CCCC1c1ccccc1 (configuration not stated)", "growth inhibition [%]": -24.4}
{"COMPOUND": "COC(c1ccc(C(C)(C)C)cc1)(c1ccc(C(C)(C)C)cc1)c1cc(C(O)(c2cc(C(OC)(c3ccc(C(C)(C)C)cc3)c3ccc(C(C)(C)C)cc3)c(C)cc2C)c2cc(C(OC)(c3ccc(C(C)(C)C)cc3)c3ccc(C(C)(C)C)cc3)c(C)cc2C)c(C)cc1C", "growth inhibition [%]": -12.7}
{"COMPOUND": "O=C1CCC(c2nc3ccccc3[nH]2)N1Cc1cccs1 (configuration not stated)", "growth inhibition [%]": -37.1}
{"COMPOUND": "COc1ccc(NC(=O)CC(=O)N2N=C(N(c3ccccc3)c3ccccc3)CC2c2ccccc2)cc1 (configuration not stated)", "growth inhibition [%]": 2.05}
{"COMPOUND": "O=C1c2ccccc2C(=O)N1CCOCCOCCN1C(=O)c2ccccc2C1=O", "growth inhibition [%]": -6}
{"COMPOUND": "CCc1c(O)c2c(=O)n(C)c(=O)n3c4ccccc4n(c1=O)c23", "growth inhibition [%]": 41.4}
{"COMPOUND": "CN(C)c1ccccc1CC(=O)Nc1ccccc1", "growth inhibition [%]": 4.45}
{"COMPOUND": "Cc1ccccc1OCC(C)OC(N)=O (configuration not stated)", "growth inhibition [%]": -11.4}

----------
List of growth inhibition values.
assay: NCI Yeast Anticancer Drug Screen. Data for the bub3 strain (AID 167); settings: S. cerevisiae bub3 mutant strain, at 50.0 µM, stronger effect = higher value
Compounds without any hit were thinned out: in the full panel of roughly 79,000, 15% have a hit. Activity calls are given as the source filed them. Rule as the data show it: active = growth inhibition above about 70%; inactive = the rest.

{"MOLECULE": "O=C1CC2(CCCc3sccc32)C(=O)N1 (configuration not stated)", "growth inhibition": "-5.6% (inactive)"}
{"MOLECULE": "COc1cc(C=Nc2cc(Cl)c(N=O)c(Cl)c2)ccc1N(CCCCl)CCCCl", "growth inhibition": "2.2% (inactive)"}
{"MOLECULE": "c1ccc(CCC2OCC(c3ccccc3)O2)cc1 (configuration not stated)", "growth inhibition": "58.8% (inactive)"}
{"MOLECULE": "C=CC(=N)N", "growth inhibition": "6.6% (inactive)"}
{"MOLECULE": "C(=C/c1ccc2c(c1)OCO2)/c1ccccc1", "growth inhibition": "11% (inactive)"}
{"MOLECULE": "Cc1ccccc1CCOC(=O)c1cc([N+](=O)[O-])cc([N+](=O)[O-])c1", "growth inhibition": "5.45% (inactive)"}
{"MOLECULE": "O=C(NCc1cccnc1)Nc1cccc2c(NC(=O)NCc3cccnc3)cccc12", "growth inhibition": "-0.05% (inactive)"}

Numbers sourced from PubChem BioAssay (NCI).
